subject.of.test: Proto-oncogene tyrosine-protein kinase ROS (Homo sapiens) (UniProt P08922)
Sequence (P08922 whole entry): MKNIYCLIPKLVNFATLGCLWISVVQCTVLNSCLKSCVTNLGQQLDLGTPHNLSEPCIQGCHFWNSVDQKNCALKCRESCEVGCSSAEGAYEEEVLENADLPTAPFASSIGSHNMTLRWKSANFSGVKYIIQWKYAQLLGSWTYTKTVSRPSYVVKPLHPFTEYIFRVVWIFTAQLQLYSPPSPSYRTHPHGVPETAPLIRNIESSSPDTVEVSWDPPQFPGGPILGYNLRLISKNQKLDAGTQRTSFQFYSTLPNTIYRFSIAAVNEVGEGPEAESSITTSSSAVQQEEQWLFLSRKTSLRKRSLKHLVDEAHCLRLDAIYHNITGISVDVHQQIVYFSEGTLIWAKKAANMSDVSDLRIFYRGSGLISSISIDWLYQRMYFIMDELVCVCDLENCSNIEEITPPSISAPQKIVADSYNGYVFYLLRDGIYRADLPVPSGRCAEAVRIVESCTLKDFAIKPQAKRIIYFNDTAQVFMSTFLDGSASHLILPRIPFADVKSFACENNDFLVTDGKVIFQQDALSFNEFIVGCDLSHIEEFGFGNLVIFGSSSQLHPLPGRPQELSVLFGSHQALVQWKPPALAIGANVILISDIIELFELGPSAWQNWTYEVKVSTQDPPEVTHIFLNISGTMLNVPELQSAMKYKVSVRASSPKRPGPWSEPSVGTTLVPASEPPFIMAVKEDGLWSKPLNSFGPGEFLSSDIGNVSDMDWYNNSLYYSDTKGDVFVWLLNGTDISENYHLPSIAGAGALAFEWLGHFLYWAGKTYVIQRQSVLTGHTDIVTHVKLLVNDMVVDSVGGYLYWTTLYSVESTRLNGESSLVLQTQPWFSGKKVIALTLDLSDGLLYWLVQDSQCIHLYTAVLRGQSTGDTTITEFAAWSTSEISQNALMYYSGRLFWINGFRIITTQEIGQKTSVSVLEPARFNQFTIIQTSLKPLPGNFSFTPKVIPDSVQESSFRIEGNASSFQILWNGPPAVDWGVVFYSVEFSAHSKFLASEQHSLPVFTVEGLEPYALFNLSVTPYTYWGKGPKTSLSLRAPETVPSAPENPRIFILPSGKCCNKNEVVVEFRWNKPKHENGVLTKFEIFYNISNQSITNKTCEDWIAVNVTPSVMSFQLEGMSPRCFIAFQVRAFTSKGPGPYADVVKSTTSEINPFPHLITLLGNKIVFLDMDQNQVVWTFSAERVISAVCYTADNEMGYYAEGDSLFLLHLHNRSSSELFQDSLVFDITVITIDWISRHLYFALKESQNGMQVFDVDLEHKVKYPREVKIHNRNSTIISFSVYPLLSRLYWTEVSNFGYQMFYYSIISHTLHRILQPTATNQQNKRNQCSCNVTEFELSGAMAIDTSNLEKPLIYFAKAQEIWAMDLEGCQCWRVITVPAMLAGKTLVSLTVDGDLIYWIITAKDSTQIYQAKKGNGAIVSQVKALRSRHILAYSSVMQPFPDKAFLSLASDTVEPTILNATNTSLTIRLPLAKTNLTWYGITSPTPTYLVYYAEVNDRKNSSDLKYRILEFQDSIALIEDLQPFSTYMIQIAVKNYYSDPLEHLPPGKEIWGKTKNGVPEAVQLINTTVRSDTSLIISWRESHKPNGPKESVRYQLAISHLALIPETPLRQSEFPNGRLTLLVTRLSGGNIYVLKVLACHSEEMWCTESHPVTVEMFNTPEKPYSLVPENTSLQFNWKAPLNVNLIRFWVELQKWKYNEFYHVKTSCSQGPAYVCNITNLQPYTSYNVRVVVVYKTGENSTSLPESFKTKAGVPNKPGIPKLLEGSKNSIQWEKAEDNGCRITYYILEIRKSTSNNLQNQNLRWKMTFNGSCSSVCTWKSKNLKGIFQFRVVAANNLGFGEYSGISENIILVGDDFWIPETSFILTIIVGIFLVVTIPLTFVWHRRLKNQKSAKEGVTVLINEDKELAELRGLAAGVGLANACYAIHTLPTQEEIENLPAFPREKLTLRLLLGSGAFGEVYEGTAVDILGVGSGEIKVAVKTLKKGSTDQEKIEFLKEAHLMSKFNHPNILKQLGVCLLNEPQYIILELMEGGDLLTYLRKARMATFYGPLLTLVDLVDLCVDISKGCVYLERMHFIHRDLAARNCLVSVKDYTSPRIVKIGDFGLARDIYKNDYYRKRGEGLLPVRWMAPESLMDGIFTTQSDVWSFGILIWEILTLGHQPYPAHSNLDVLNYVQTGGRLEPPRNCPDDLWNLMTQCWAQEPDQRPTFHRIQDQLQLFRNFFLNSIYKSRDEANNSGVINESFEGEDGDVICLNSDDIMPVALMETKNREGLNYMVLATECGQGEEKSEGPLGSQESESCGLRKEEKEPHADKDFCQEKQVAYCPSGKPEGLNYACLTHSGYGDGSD
run.parameters: at 0.1 µM
Description: GSK_PKIS: ROS mean inhibition at 0.1 uM [Nanosyn]
Entries and their inhibition
parameter: inhibition (%)

COc1cc2ncn(-c3cc(OCc4ccccc4C(F)(F)F)c(C(N)=O)s3)c2cc1OC
5.76
COc1ccccc1Nc1ncc(-c2ccccc2)o1
5.04
COc1cc2ncn(-c3cc(O[C@@H](C)c4ccccc4Cl)c(C(N)=O)s3)c2cc1OC
5.59
O=C1NC(=O)C(c2cccc(Cl)c2)=C1Nc1ccc(O)c(Cl)c1
1.16
N#Cc1c(NC(=O)c2cccc3ccccc23)sc2c1CCCC2
3.2
Cc1ccc(C(=O)NC2CCCCC2)cc1-c1ccc(C(=O)NCC2CC2)cc1
6.22
Cn1cc(C=C2C(=O)Nc3cccnc32)c2ccccc21
4.42
COC(=O)Nc1nc2cc(Oc3ccc(NC(=O)Nc4cccc(C(=O)O)c4)cc3)ccc2[nH]1
-2.86
COc1cccc(-n2ncc3c(N/N=C/c4cccc(F)c4)ncnc32)c1
3.12
COc1cc2c(cc1Nc1nc(N3CCc4ccccc43)c3cc[nH]c3n1)N(C(=O)CN(C)C)CC2
70.2
O=C1NC(=O)C(c2ccc(Cl)cc2)=C1Nc1ccc(Cl)c(C(=O)O)c1
1.45
CN1CCC(C(=O)Nc2n[nH]c3nnc(-c4ccccc4)cc23)CC1
5.55
COC(=O)Nc1nc2cc(Oc3cccc(NC(=O)Nc4cc(C(F)(F)F)ccc4F)c3)ccc2[nH]1
1.83
COc1cc2ncn(-c3cc(OCc4ccccc4Cl)c(C(N)=O)s3)c2cc1OC
9.59
Nc1ncnc2occ(-c3ccc(NC(=O)Nc4cccc(C(F)(F)F)c4)cc3)c12
6
CCn1c(-c2nonc2N)nc2cncc(C(=O)N3CC[C@H](N)C3)c21
7.46
O=C1Nc2ccc(C(=O)c3ccco3)cc2C1=Cc1cc(Cl)c(O)c(Cl)c1
6.01
COc1ccc(-c2nn3ncccc3c2-c2ccnc(Nc3ccc(Cl)c(C(F)(F)F)c3)n2)cc1
2.34
CCn1c(-c2nonc2N)nc2cnc(Oc3cccc(NC(=O)c4ccc(OCCN5CCOCC5)cc4)c3)cc21
8.56
COc1ccc2cc(-c3c(-c4ccncc4)nc(-c4ccc([S+](C)[O-])cc4)n3C)ccc2c1 (stereo not given)
4.08

Where these numbers come from: ChEMBL document CHEMBL1961873
